Target: T1, purified human CD117 ectodomain (R&D Systems #332-SR) (human, UniProt P10721 26-524)
T1 construct: extracellular domain; Bought protein; also called c-kit; purified recombinant human CD117 ectodomain
T1 sequence (P10721 26-524): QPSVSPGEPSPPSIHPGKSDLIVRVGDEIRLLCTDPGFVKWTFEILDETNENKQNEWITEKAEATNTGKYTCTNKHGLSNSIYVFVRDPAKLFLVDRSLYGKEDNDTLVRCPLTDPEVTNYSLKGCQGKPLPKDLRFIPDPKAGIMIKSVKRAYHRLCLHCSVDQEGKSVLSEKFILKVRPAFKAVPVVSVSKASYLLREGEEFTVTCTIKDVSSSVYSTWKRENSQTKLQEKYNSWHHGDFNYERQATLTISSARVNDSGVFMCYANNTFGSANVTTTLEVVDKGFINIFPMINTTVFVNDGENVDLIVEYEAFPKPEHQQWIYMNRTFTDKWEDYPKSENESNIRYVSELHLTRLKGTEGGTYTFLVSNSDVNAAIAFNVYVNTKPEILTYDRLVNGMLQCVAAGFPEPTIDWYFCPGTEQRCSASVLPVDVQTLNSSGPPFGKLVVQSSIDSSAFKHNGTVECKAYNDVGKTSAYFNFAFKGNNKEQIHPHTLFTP
Assay: BLI, purified IgG on sensor, soluble ectodomain; apparent monovalent
Would you mind telling me the reported kon of each entry?
Give bare numbers, in M⁻¹ s⁻¹.

HC-17/LC-17 (Ab17) (antibody, IgG1, V domains shown, From rat immunization/hybridoma; purified IgG in BLI; also called 017) VH: QIQLVQSGPELRKPGESVKISCKASGYTFTDYAMYWVKQAPGKGLKWMGWINTYTGKPTYADDFKGRFVFSLEASANTANLQISNLKNEDTATYFCARARGLVDDYVMDAWGQGTSVTVSS VL: SYELIQPPSASVTLGNTVSLTCVGDELSKRYAQWYQQKPDKTIVSVIYKDSERPSGISDRFSGSSSGTTATLTIHGTLAEDEADYYCLSTYSDDNLPVFGGGTKLTVL ... 456000
HC-18/LC-18 (Ab18) (antibody, IgG1, V domains shown, From rat immunization/hybridoma; purified IgG in BLI; also called 018) VH: EVQLQQYGAELGKPGTSVRLSCKVSGYNIRNTYIHWVNQRPGEGLEWIGRIDPTNGNTISAEKFKTKATLTADTSSHTAYLQFSQLKSDDTAIYFCALNYEGYADYWGQGVMVTGSS VL: DIQMTQSPSFLSASVGDRVTINCKASQNINKYLNWYQQKVGEAPKRLIFKTNSLQTGIPSRFSGSGSGTDYTLTISSLQTEDVATYFCFQYNIGYTFGAGTKVELK ... 221000

Next item in the queue.
Challenge: Which kon is listed for HC-4/LC-4 (Ab4) (antibody, IgG1, V domains shown, Purified IgG; also called 004) VH: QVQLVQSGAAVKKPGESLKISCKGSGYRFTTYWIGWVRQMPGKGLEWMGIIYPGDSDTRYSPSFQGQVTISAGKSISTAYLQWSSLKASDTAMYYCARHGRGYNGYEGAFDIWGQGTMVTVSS VL: AIQMTQSPSSLSASVGDRVTITCRASQGIRNDLGWYQQKPGKAPKLLIYDASSLESGVPSRFSGSGSGTDFTLTISSLQPEDFATYYCQQFNSYPLTFGGGTKVDIK ?
Response given: 345000
